From: ChEMBL document CHEMBL1141585

- Experiment Description: Inhibition of AmpC beta-lactamase
pIC50: −log10 of the molar value.
Rule: pIC50 of 8 or more gives t; anything lower gives f.

Some solved entries appear below for comparison.
INSERT INTO measurements (molecule, label) VALUES
  ('O=C([O-])C1=CS[C@@H]2/C(=C/c3cc4oc5c(n4n3)CCOC5)C(=O)N12.[Na+]', 'f'),
  ('O=C([O-])C1=CS[C@@H]2/C(=C\c3cc4oc5c(n4n3)CCOC5)C(=O)N12.[Na+]', 't'),
  ('O=C([O-])C1=CS[C@@H]2/C(=C\c3cn4c5c(sc4n3)CCCC5)C(=O)N12.[Na+]', 't'),
  ('O=C([O-])C1=CS[C@@H]2/C(=C\c3cn4c(n3)nc3n4CCCC3)C(=O)N12.[Na+]', 't'),
  ('C[C@]1(Cn2ccnn2)[C@H](C(=O)[O-])N2C(=O)C[C@H]2S1(=O)=O.[Na+] [TAZOBACTAM SODIUM]', 'f'),
  ('O=C([O-])C1=CS[C@@H]2/C(=C\c3cn4c5c(sc4n3)COCC5)C(=O)N12.[Na+]', 't'),
  ('O=C([O-])C1=CS[C@@H]2/C(=C\c3cc4oc5c(n4n3)CCCC5)C(=O)N12.[Na+]', 't'),
  ('O=C([O-])C1=CS[C@@H]2/C(=C\c3cn4c5c(sc4n3)CCC5)C(=O)N12.[Na+]', 't');

Query :: Could you verify whether the entry `CCOC(=O)N1CCc2c(oc3cc(/C=C4/C(=O)N5C(C(=O)[O-])=CS[C@H]45)nn23)C1.[Na+]` shows pIC50 of no less than 8?
Result :: t
